Data credit: paper PMC8434415

Biological target: α-glucosidase from Saccharomyes cerevisiae (Saccharomyces cerevisiae)
Construct: purchased Sigma-Aldrich (St. Louis, MO, USA)
Sequence (P53341 whole entry): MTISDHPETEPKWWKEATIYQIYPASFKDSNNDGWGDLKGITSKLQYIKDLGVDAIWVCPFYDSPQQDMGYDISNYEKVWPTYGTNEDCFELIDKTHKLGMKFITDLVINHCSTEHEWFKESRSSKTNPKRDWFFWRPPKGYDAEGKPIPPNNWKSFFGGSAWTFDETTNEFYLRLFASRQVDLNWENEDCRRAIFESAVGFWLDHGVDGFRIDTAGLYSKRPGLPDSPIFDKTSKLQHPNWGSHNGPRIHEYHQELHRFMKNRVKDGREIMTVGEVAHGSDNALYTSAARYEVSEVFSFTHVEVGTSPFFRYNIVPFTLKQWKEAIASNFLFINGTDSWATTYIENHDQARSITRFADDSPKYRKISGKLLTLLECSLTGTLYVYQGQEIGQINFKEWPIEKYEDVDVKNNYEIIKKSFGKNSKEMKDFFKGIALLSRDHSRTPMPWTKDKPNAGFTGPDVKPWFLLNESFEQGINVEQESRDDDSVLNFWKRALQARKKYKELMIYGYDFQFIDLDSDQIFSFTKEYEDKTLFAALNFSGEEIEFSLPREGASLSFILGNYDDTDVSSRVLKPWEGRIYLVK
Test: α-glucosidase inhibitory assay (PNPG substrate)
Type: biochemical
Details: compound at 667 μM
Returns one of Condition met or Condition not met; Condition met when inhibition at 667 µM is >= 20%.

[[record]]
compound = "COC(=O)CC(O)CCCCc1cc(=O)c2c(OC)cc(OC)cc2o1 (centres unmarked)"
assay_target = "α-glucosidase from Saccharomyes cerevisiae (Saccharomyces cerevisiae)"
label_class = "Condition not met"

[[record]]
compound = "O=C(O)CC(O)CCCCc1cc(=O)c2c(O)cc(O)cc2o1 (centres unmarked)"
assay_target = "α-glucosidase from Saccharomyes cerevisiae (Saccharomyces cerevisiae)"
label_class = "Condition met"


Could you please find out whether COC(=O)CCCCC(O)Cc1cc(=O)c2c(O)cc(OC)cc2o1 (centres unmarked) has inhibition at 667 µM that meets 20% or exceeds it?
Condition met

Please indicate if the recorded inhibition at 667 µM for COc1cc(OC)c2c(=O)cc(CCCCC(O)CC(=O)O)oc2c1 (centres unmarked) meets or exceeds 20%.
Condition not met

Please tell me: is the compound O=C(O)CCCCC(O)Cc1cc(=O)c2c(O)cc(O)cc2o1 (centres unmarked) at or over 20% in terms of inhibition at 667 µM?
Condition not met
